Origin of measurements: PubChem BioAssay (NCATS)

Method Description: qHTS of pediatric cancer cell lines to identify multiple opportunities for drug repurposing: Primary screen for TC32 cells (AID 1347089); further: nearly all actives have a fitted effect of over 60% in size; further: potency means the concentration at half of the fitted maximal effect
Particulars: TC32 Ewing sarcoma viability, CellTiter-Glo luminescence, 48 h; series mostly up to 45.8 µM
Inconclusive results are not listed. Active and inactive are the calls of the source. The call rests on the fitted dose curve; in most records, active means well fitted cell-killing curve with a large enough effect; inconclusive means small, poorly fitted or top-dose-only effect; inactive means flat fitted curve, though single readings scatter.
Value Kind: Potency

Compound	Recorded Result
COc1cc2c(Nc3ccc(NC(=O)c4ccccc4)cc3)ncnc2cc1OCCCN1CCOCC1	3700 nM (active)
CN1CCN(Cc2ccc(NC(=O)Nc3ccc(Oc4cc(NC(=O)C5CC5)ncn4)cc3)cc2C(F)(F)F)CC1	294 nM (active)
Cc1coc2c1C(=O)C(=O)c1c-2ccc2c1CCCC2(C)C	inactive
CN1CCC(CNc2ccc3ncc(-c4cccc(OC(F)(F)F)c4)n3n2)CC1	inactive
CC(=O)Nc1sc2c(c1-c1nc3ccccc3s1)CNC2	inactive
CCCCCN(CCC12CC3CC(CC(C3)C1)C2)C(=O)NCCCc1ccncc1	inactive
CCS(=O)(=O)c1cccc(-c2cc(C(=O)NC3CCN(C)CC3)c(C)c3[nH]c4ncc(C)cc4c23)c1	415 nM (active)
COc1cc2ncnc(Nc3ccc(F)c(Cl)c3)c2cc1NC(=O)C=CCN1CCCCC1	inactive
CC1(C)CCC(c2ccc(Cl)cc2)=C(CN2CCN(c3ccc(C(=O)NS(=O)(=O)c4ccc(N[C@H](CCN5CCOCC5)CSc5ccccc5)c(S(=O)(=O)C(F)(F)F)c4)cc3)CC2)C1	inactive
CC[C@@H]1C(=O)N(C)c2cnc(Nc3ccc(C(=O)NC4CCC(N5CCN(CC6CC6)CC5)CC4)cc3OC)nc2N1C(C)C (stereo partly drawn)	370 nM (active)
CC(C)c1noc(N2CCC(COc3ccc(-c4ccc(S(C)(=O)=O)cc4)nc3)CC2)n1	inactive
CC1(C)OC2=C(C(=O)c3ccccc3C2=O)[C@H](NCc2ccccc2)[C@H]1O	18600 nM (active)
Nc1ccccc1NC(=O)c1ccc(CNc2nccc(-c3cccnc3)n2)cc1	6580 nM (active)
O=C(NC1CCNCC1)c1[nH]ncc1NC(=O)c1c(Cl)cccc1Cl	2340 nM (active)
Cc1c(C)n(Cc2ccc(-c3ccccc3C(=O)O)cc2)c2ccc(C(=O)N[C@@H](C)c3ccc([N+](=O)[O-])cc3)cc12	inactive
CC(C)c1ccccc1Cc1cc(C(=O)Nc2ccc(S(=O)(=O)c3ccccc3C(C)(C)C)cc2)c(O)c(O)c1O	inactive
CC[C@@H]1C(=O)N(C)c2cnc(Nc3ccc(C(=O)NC4CCN(C)CC4)cc3OC)nc2N1C1CCCC1	234 nM (active)
O=C(NCCCNc1nc(Nc2cccc(NC(=O)N3CCCC3)c2)ncc1I)c1cccs1	2620 nM (active)
